# Tested on: SEM cells
# PROCEDURE SUMMARY: cell viability relative to DMSO control; higher = less cytotoxic
# CONDITION LABEL: HPLM + 10% dialyzed FBS; 48 h; 0.19 µM
READOUT KIND: cell viability
Provide the measurement as a number trailed by its unit.

These recorded examples may help you get a feel for the data.
COMPOUND: OC[C@H]1OCC(O1)[N@@]2C=CC(N)=NC2=O (stereo partly drawn)
EXPERIMENTAL RESULT: 103%

COMPOUND: COc1ncc(-c2ccc3nccc(-c4ccnnc4)c3c2)cc1N[S+](=O)([O-])c1ccc(F)cc1F
EXPERIMENTAL RESULT: 50.4%

COMPOUND: COC1=CC=C(C=C1)C/2=C/OC3=C(C(=CC(=C3)O)O)C2=O
EXPERIMENTAL RESULT: 114%

Which measured cell viability value corresponds to CN1CCCN=C1/C=C/c1cccs1.O=C(O)c1cc2ccccc2c(Cc2c(O)c(C(=O)O)cc3ccccc23)c1O ?
135%

Which measured cell viability value corresponds to COc1cc2c(cc1OC)CC(=O)N(CCCN(C)C[C@H]1Cc3cc(OC)c(OC)cc31)CC2.Cl ?
125%
